Assignment: determine reported log10 Kd for the given compounds.
Biological target: human α1A-adrenoceptor (Homo sapiens)
Construct: CHO cells stably expressing either the full‐length human α1A, α1B, or α1D‐adrenoceptor
Sequence (P35348 1-466): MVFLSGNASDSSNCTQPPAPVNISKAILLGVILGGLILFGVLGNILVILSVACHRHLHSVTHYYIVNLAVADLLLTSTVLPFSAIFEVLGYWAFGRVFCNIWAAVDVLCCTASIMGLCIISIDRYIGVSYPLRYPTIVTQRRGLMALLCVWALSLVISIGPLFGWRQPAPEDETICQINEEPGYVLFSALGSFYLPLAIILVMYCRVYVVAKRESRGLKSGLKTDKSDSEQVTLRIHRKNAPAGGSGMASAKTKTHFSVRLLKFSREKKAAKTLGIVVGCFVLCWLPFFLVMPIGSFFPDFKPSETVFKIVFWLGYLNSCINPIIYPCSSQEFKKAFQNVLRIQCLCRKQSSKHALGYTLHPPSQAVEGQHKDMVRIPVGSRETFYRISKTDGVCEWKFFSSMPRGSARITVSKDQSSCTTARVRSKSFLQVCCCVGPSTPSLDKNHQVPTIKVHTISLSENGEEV
Experiment: [3H]prazosin whole-cell competition binding, CHO-α1A cells
Conditions: single-component inhibition curve; given as log KD (negative); mean ± SE mean; read-out: Log KD α1A (converted)
# log10 transformed; quantity=Kd; unit=nM

response.value for CCN1CCCC1CNC(=O)c1cc(S(N)(=O)=O)ccc1OC (stereo not drawn) [Sulpiride] (field: log10 Kd) = 4.50

The reported value for CN(C)CC/C=C1\c2ccccc2CSc2ccccc21 [Dosulepin] in terms of log10 Kd is 1.89

GET /value?item= O=C1NCCN1CCN1CCC(c2cn(-c3ccc(F)cc3)c3ccc(Cl)cc23)CC1 [Sertindole] &field=log10 Kd returns -0.27

Lookup result for Cc1ccc(Sc2ccccc2N2CCNCC2)c(C)c1 [Vortioxetine] ; measured log10 Kd: 2.68

Entry CC(CN1c2ccccc2Sc2ccccc21)N(C)C (stereo not drawn) [Promethazine] ; log10 Kd = 2.00

So for COc1ccccc1N1CCN(CC(O)COc2cccc3ccccc23)CC1 (stereo not drawn) [Naftopidil] , the logged log10 Kd turned out to be 1.03

For reference, reported log10 Kd for O=C1CCC(=O)N1C[C@H]1CC[C@H]2CN(c3ncccn3)CCN2C1 [Sunepitron] stands at 3.22

So for CC(C)(Cc1c[nH]c2ccc(Cl)cc12)NCCOc1ccccc1OCC1CC1.Cl [RS17053] , the logged log10 Kd turned out to be 0.67

The reported value for CNCCCC1c2ccccc2C=Cc2ccccc21 [Protriptyline] in terms of log10 Kd is 2.33

// Cc1ccc(/N=C/N(C)/C=N/c2ccc(C)cc2C)c(C)c1 [Amitraz] : log10 Kd value = 3.48

Short answer for CC(C)(C)NCC(O)COc1cccc2[nH]c(=O)[nH]c12 (stereo not drawn) [CGP12177] : log10 Kd was 3.86

Record summary for CC(C)(C)NCC(O)COc1cccc2[nH]c(C#N)cc12 (stereo not drawn) [Cyanopindolol] : reported log10 Kd = 3.41

###

Target: human α1B-adrenoceptor (Homo sapiens)
Construct: CHO cells stably expressing either the full‐length human α1A, α1B, or α1D‐adrenoceptor
Sequence (P35368 1-520): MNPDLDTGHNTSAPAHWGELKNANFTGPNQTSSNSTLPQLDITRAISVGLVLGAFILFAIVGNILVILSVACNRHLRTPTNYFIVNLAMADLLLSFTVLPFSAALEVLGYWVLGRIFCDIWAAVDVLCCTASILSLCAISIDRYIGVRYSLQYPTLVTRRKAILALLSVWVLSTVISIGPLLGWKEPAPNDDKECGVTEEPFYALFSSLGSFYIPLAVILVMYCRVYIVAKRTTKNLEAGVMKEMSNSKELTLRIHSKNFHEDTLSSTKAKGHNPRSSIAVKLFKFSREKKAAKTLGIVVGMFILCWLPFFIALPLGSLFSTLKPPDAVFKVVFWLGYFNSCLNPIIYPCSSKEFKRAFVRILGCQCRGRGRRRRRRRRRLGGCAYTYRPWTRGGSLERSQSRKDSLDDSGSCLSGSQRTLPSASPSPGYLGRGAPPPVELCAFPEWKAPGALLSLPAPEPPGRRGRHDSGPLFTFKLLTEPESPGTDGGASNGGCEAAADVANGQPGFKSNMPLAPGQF
Assay: [3H]prazosin whole-cell competition binding, CHO-α1B cells
Settings: single-component inhibition curve; given as log KD (negative); mean ± SE mean; read-out: Log KD α1B (converted)
Assign log10 of Kd to each entry below.
Record value = log10 of Kd given in nM.

Record CN1CCN(CCCN2c3ccccc3Sc3ccc(C(F)(F)F)cc32)CC1 , field log10 of Kd: 2.12

O=c1[nH]c2ccccc2n1CCCN1CCC(n2c(=O)[nH]c3cc(Cl)ccc32)CC1 has a reported log10 of Kd of 3.50

Value of measured log10 of Kd for the entry O=C1NCN(c2ccccc2)C12CCN(CC1COc3ccccc3O1)CC2 (centres unmarked) : 2.59

Input CNCCCC1c2ccccc2C=Cc2ccccc21 . Output log10 of Kd: 3.43

Memo: CNCCC=C1c2ccccc2CCc2ccccc21 , reported log10 of Kd: 2.93

response.value for OCCN1CCN(CCC=C2c3ccccc3Sc3ccc(C(F)(F)F)cc32)CC1 (field: log10 of Kd) = 1.53

Memo: CN(C)CCCN1c2ccccc2CCc2ccc(Cl)cc21 , reported log10 of Kd: 2.66

Entry CN(C)CCC=C1c2ccccc2COc2ccccc21 [Doxepin] — recorded log10 of Kd = 2.82

The reported value for CC(C)(Cc1c[nH]c2ccccc12)NCC(O)COc1ccccc1C#N (centres unmarked) in terms of log10 of Kd is 2.54

Record COc1ccccc1N1CCN(CCN2C(=O)CC3(CCCC3)CC2=O)CC1 , field log10 of Kd: 2.77

log10 of Kd in this record for CCC1(C2=NCCN2)Cc2ccccc2O1 (centres unmarked) : 4.73

Looking up CC(C)NCC(O)COc1cccc2[nH]c3ccccc3c12 (centres unmarked) , I found its log10 of Kd recorded as 4.32

According to the records, this compound COc1ccccc1N1CCN(CC(O)COc2cccc3ccccc23)CC1 (centres unmarked) displays log10 of Kd of 2.18

The measured log10 of Kd associated with CNCCCN1c2ccccc2CCc2ccccc21 reads 3.43

Entry O=C1NCCN1CCN1CCC(c2cn(-c3ccc(F)cc3)c3ccc(Cl)cc23)CC1 , log10 of Kd reported as 0.72

Entry COc1cc2nc(N(C)CCCNC(=O)C3CCCO3)nc(N)c2cc1OC (centres unmarked) — recorded log10 of Kd = 1.44

For CN(C)CCCN1c2ccccc2CCc2ccccc21 the compound record lists log10 of Kd as 3.24

Quick note, log10 of Kd for CCOc1ccccc1OCCN[C@H](C)Cc1ccc(OC)c(S(N)(=O)=O)c1 landed at 0.88

Input COc1ccccc1N1CCN(CCCNc2cc(=O)n(C)c(=O)n2C)CC1 . Output log10 of Kd: 3.50

The compound identified as CC(C(O)c1ccc(O)cc1)N1CCC(Cc2ccccc2)CC1 (centres unmarked) registered its log10 of Kd at 2.51

get_value(item= Cc1ccc(Sc2ccccc2N2CCNCC2)c(C)c1 , readout=log10 of Kd) returns 3.58

Short answer for CC(C)(C)NCC(O)COc1cccc2[nH]c(C#N)cc12 (centres unmarked) : log10 of Kd was 4.09

Kindly note the recorded log10 of Kd for O=c1n(CCCN2CCN(c3cccc(Cl)c3)CC2)nc2ccccn12 , which is 2.44

# log10 of Kd of OCCOCCN1CCN(C2=Nc3ccccc3Sc3ccccc32)CC1 = 1.79

For Cc1nc2n(c(=O)c1CCN1CCC(c3noc4cc(F)ccc34)CC1)CCCC2O (centres unmarked) the compound record lists log10 of Kd as 1.64

Sure, the documented log10 of Kd for CN1CCN(CCCN2c3ccccc3Sc3ccc(Cl)cc32)CC1 is 2.12

Measured log10 of Kd, O=c1[nH]c2ccccc2n1C1CCN(CCCC(c2ccc(F)cc2)c2ccc(F)cc2)CC1 [Pimozide] : 2.21

Lab book: log10 of Kd of CC(CN(C)C)CN1c2ccccc2CCc2ccccc21 (centres unmarked) noted as 2.90

Summary for this compound, OCCN1CCN(CCCN2c3ccccc3Sc3ccc(Cl)cc32)CC1 : log10 of Kd is 1.57

Entry O=C(NC1CCN(CCc2c[nH]c3ccccc23)CC1)c1ccccc1 — recorded log10 of Kd = 2.18

For this compound ( O=C1[C@@H]2[C@H]3CC[C@H](C3)[C@@H]2C(=O)N1C[C@@H]1CCCC[C@H]1CN1CCN(c2nsc3ccccc23)CC1 ), measured log10 of Kd is 1.83

Reported log10 of Kd of CC(CN1c2ccccc2Sc2ccccc21)N(C)C (centres unmarked) : 2.94

The compound O=C1Cc2cc(CCN3CCN(c4nsc5ccccc45)CC3)c(Cl)cc2N1 showed log10 of Kd equal to 1.30

Please fill in: log10 of Kd reported for CC(C)(Cc1c[nH]c2ccc(Cl)cc12)NCCOc1ccccc1OCC1CC1.Cl = 2.39

Summary for this compound, CC(C)C[C@H]1C(=O)N2CCC[C@H]2[C@]2(O)O[C@](NC(=O)[C@@H]3C=C4c5cccc6[nH]c(Br)c(c56)C[C@H]4N(C)C3)(C(C)C)C(=O)N12 : log10 of Kd is 1.04

GET /value?item= CN[C@H]1CC[C@@H](c2ccc(Cl)c(Cl)c2)c2ccccc21 &field=log10 of Kd returns 3.55

So, CN(C)CCCN1c2ccccc2Sc2ccc(Cl)cc21 ? Its log10 of Kd was 1.16

Notebook: CN(C)CCC=C1c2ccccc2CCc2ccccc21 , log10 of Kd read as 2.78
